Property: solubility kinetic; scope: individual molecules
protocol-text: Kinetic solubility of compound in PBS at pH 7.3 by nephelometry

{"columns": ["structure", "sign-qualifier", "solubility kinetic [µM]"],
 "data": [
  ["Cc1sc2ncn(CC(=O)N3CCCC3)c(=O)c2c1-c1cccc(Br)c1", ">", 100],
  ["CC1(F)CN(C(=O)Cn2cnc3scc(-c4ccc(F)c(Br)c4)c3c2=O)C1", "=", 33],
  ["Cc1sc2ncn(CC(=O)N3CC(C)(F)C3)c(=O)c2c1-c1ccc(F)c(Br)c1", "=", 34],
  ["CC1(F)CN(C(=O)Cn2cnc3sc(C#N)c(-c4ccc(F)c(Br)c4)c3c2=O)C1", "=", 45]
]}
